Settings: buffer; pH 7.4; 200.0 µM
observation_type: solubility kinetic (µg/mL)

molecule | observation_type | result_unit | value_relation_sign | readout_number
CC(C)N=c1cc2n(-c3ccc(Cl)cc3)c3ccccc3nc-2cc1Nc1ccc(Cl)cc1 | solubility kinetic | µg/mL | = | 0.3
Cc1ccc2nc(SC(C)C(=O)N3CC(C)OC(C)C3)[nH]c2c1 (stereo not given) | solubility kinetic | µg/mL | = | 49.4
C#CC(CC)(CC)NC(=O)c1ccc(Br)s1 | solubility kinetic | µg/mL | = | 18.6
COc1ccc2c(c1)c(C(C)=O)c(C)n2Cc1ccco1 | solubility kinetic | µg/mL | = | 36.7
Cc1cc(C)n2nc(SC(C)C(=O)N(C)C3CCCCC3)nc2n1 (stereo not given) | solubility kinetic | µg/mL | > | 52.1
